molecular target: FGFR4 (Homo sapiens (Human), UniProt P22455); assay: Kinase assay, binding constants (Kd), kinase-tagged T7 phage, qPCR
Sequence (P22455 22-802): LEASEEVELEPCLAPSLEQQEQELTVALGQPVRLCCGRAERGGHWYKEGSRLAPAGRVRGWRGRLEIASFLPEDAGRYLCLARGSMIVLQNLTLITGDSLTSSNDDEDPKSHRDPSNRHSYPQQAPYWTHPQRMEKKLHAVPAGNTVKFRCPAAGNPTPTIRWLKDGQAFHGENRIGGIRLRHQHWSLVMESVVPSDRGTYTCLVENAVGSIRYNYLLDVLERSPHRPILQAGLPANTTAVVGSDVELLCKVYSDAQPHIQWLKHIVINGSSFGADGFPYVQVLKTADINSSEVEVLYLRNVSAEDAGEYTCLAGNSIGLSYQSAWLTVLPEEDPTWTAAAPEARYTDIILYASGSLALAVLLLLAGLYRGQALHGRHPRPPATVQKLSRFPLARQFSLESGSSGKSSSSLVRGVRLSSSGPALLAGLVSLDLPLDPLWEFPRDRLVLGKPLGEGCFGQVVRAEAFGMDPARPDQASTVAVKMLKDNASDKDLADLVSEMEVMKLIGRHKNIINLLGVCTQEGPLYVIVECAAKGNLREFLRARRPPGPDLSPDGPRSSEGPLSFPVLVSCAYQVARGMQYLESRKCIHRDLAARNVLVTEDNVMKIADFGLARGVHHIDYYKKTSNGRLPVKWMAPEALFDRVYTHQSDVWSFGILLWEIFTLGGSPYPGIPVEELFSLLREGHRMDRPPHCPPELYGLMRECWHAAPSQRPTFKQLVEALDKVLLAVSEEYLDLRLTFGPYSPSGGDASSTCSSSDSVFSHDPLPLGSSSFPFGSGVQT
Outcome Measure: Kd

C[C@@H](Oc1ccc2[nH]nc(-c3ccc(N4CC5(CNC5)C4)nc3)c2c1)c1c(Cl)cncc1Cl: 1 to 20 nM
C[C@@H](Oc1ccc2[nH]nc(-c3cnc(N4CC5(CCCN(S(C)(=O)=O)C5)C4)c(C#N)c3)c2c1)c1c(Cl)cncc1Cl: 1 to 20 nM
Cc1ncc(Cl)c([C@@H](C)Oc2cc3c(-c4cnc(N5CC6(C5)CN(S(C)(=O)=O)C6)c(F)c4)n[nH]c3cc2Cl)c1Cl: 1 to 20 nM

State the recorded Kd for every item in the following list.
1. Cc1ncc(Cl)c([C@@H](C)Oc2ccc3[nH]nc(-c4cnc(N5CC6(CCCN(S(C)(=O)=O)C6)C5)c(C#N)c4)c3c2)c1Cl
2. CCC(=O)N1CCN(c2ccc(-c3n[nH]c4ccc(O[C@H](C)c5c(Cl)cncc5Cl)cc34)cn2)CC1
3. C[C@@H](Oc1ccc2[nH]nc(-c3ccc(N4CCNCC4=O)nc3)c2c1)c1c(Cl)cncc1Cl

## Result
1. 1 to 20 nM
2. 1 to 20 nM
3. 1 to 20 nM
